tested on: NCI-H522 lung; experiment: NCI-60 one-dose screen, 48 h (100 = growth as untreated, 0 = no growth, -100 = all killed); details: 10 µM unless noted
About 83,000 compounds went through this panel and 20% of them were active in at least one assay; those are over-represented in the sample as a whole.
readoutKind: growth (%)
# value in %; strip the unit string

Sample records with growth:
[
  {
    "smilesCode": "CCN1CCN(c2cc(C)c3cc(NC(=O)c4ccc(OC)c(OC)c4)ccc3n2)CC1",
    "readoutKind": "growth",
    "unitName": "%",
    "testResult": 51.8
  },
  {
    "smilesCode": "CCOC(=O)c1sc(-c2ccc(OS(=O)(=O)C[C@]34CCC(CC3=O)C4(C)C)c(C=O)c2)nc1C",
    "readoutKind": "growth",
    "unitName": "%",
    "testResult": 1.5
  },
  {
    "smilesCode": "CC(=O)c1ccc(NC(=O)Nc2ccc(S(=O)(=O)Nc3ccc(Cl)nn3)cc2)cc1",
    "readoutKind": "growth",
    "unitName": "%",
    "testResult": 96.9
  },
  {
    "smilesCode": "COc1ccc2oc(=O)cc(Cn3cc(Cn4cnc5c4c(=O)n(C)c(=O)n5C)nn3)c2c1",
    "readoutKind": "growth",
    "unitName": "%",
    "testResult": 98.6
  }
]

# evaluate next
Incoming: Entry `Cc1cc(Nc2ccc(OCc3ccccc3)cc2)nc2cc(O)ccc12` has what growth?
Outgoing: 53.2

###

system: SN12C renal; assay: NCI-60 one-dose screen, 48 h; settings: 10 µM unless noted
The panel holds about 83,000 compounds, 20% with a hit somewhere; the sample as a whole holds those more often. Active and inactive are the calls of the source. The calls were made as follows: active = growth percent below 10; inactive = the rest.
Can you answer with just one of these options? active, inactive

Below are worked cases with known answers.
[
  {
    "compound": "NCCOc1ccccc1/C=C1\\c2ccccc2-c2ccc([N+](=O)[O-])cc21",
    "className": "active"
  },
  {
    "compound": "COc1ccc(C2Nc3nc(OC)n(C)c(=O)c3N=C3c4ccccc4C(=O)C32)cc1 (stereo not given)",
    "className": "inactive"
  },
  {
    "compound": "CC(=O)Nc1nc2c(s1)CCc1c-2cn(S(=O)(=O)c2ccccc2)c1-c1ccccc1",
    "className": "inactive"
  },
  {
    "compound": "O=Cc1cc2ccccc2nc1Nc1nccs1",
    "className": "inactive"
  },
  {
    "compound": "COc1cc(CNC(=O)c2ccsc2Nc2ccnc(C(F)(F)F)c2)ccc1O",
    "className": "inactive"
  }
]

Incoming: How was O=S(=O)(Nc1ncccn1)c1ccc(NC2Nc3nc4ccccc4nc3S2)cc1 (stereo not given) classified in this test?
Outgoing: inactive

Incoming: Would you mind telling me which call this test gave `Cc1ccc(C)c(-c2csc(Nc3ccc(C)c(C)c3)n2)c1` ?
Outgoing: inactive

Incoming: For this compound, state the assay outcome: COc1ccc(C(=O)C2CC2c2ccc(Cl)cc2)cc1 (stereo not given)
Outgoing: inactive

Incoming: // return assay outcome for `COc1cc(/C=C2\CCC/C(=C\c3cc(CN4CCCCC4)c(O)c(OC)c3)C2=O)cc(CN2CCCCC2)c1O`
Outgoing: inactive

Incoming: Check the results log: what was the call for O=C(Cc1ccccc1)NC(c1ccc(Cl)cc1)c1c(O)ccc2ccccc12 (stereo not given) ?
Outgoing: inactive
